Activity values, listed per item
Molecular target: Proteinase-activated receptor 2 (Homo sapiens)
Test: Agonist activity at PAR2 receptor in human HT-29 cells assessed as induction of intracellular calcium release at 50 uM relative to […]
Assay type: functional, cell-based
Answer in %, number only, no unit symbol.

Query: Which Activity value belongs to CC[C@H](C)[C@H](NC(=O)[C@H](CC(C)C)NC(=O)c1ccco1)C(N)=O ?
Reply: 38

Query: Also CC[C@H](C)[C@H](NC(=O)[C@H](Cc1ccccc1)NC(=O)c1ccco1)C(N)=O , if possible.
Reply: 67

Query: Also CC(C)C[C@H](NC(=O)c1ccco1)C(=O)N[C@@H](Cc1ccc(F)cc1)C(N)=O , if possible.
Reply: 19

Query: Also CC(C)C[C@H](NC(=O)c1ccco1)C(=O)N[C@@H](CC1CCCCC1)C(N)=O , if possible.
Reply: 43

Query: Also CC[C@H](C)[C@H](NC(=O)[C@H](CC1CCCCC1)NC(=O)c1ccco1)C(N)=O , if possible.
Reply: 58

Query: Also CC[C@H](C)[C@H](NC(=O)[C@@H](NC(=O)c1ccco1)C1CCCCC1)C(N)=O , if possible.
Reply: 12

Query: Also CC(C)C[C@H](NC(=O)c1ccco1)C(=O)N[C@@H](Cc1ccccc1)C(N)=O , if possible.
Reply: 22
